Catalogue of IC50 readings, one per entry.
Target: HBsAg clinical mutation D144A (Hepatitis B virus)
Test: sandwich ELISA, captured mutant HBsAg from culture supernatant;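 further: Anti-HBsAg antibodies tested for binding to mutant HBsAg secreted by stably transfected cell lines, supernatant incubated 1 h on antibody-coated plates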
Give the number; nM is assumed, so skip it.

INSERT INTO measurements (binder, observed_value) VALUES
  ('NOV3842 (antibody, human IgG1, lambda, V domains shown, Full human IgG1 (lambda) expressed in CHO cells) VH: EVQLLESGGGLVQPGGSRRLSCAASGFTFSYYGMNWVRQAPGKGLEWVSGITNVGSITYYADTVKGRFSISRDNSKNTLFLQMNSLRAEDTAVYYCAKVGVRSSSGMWDLDYWGQGTLVTVSS VL: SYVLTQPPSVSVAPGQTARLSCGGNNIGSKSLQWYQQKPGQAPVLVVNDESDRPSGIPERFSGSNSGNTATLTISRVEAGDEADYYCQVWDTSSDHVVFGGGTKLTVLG', 0.12),
  ('NOV3840 (antibody, human IgG1, lambda, V domains shown, Full human IgG1 (lambda) expressed in CHO cells) VH: EVQLLESGGGLVQPGGSRRLSCAASGFTFSYYGMNWVRQAPGKGLEWVSGITNSGSITYYADSVKGRFSISRDNSKNTLFLQMNSLRAEDTAVYYCAKVGVRSSSGMWDLDYWGQGTLVTVSS VL: SYVLTQPPSVSVAPGQTARLSCGGNNIGSKSLQWYQQKPGQAPVLVVNDDSDRPSGIPERFSGSNSGNTATLTISRVEAGDEADYYCQVWDTSSDHVVFGGGTKLTVLG', 0.012);

For reference, reported IC50 for NOV3831 (antibody, human IgG1, lambda, V domains shown, Full human IgG1 (lambda) expressed in CHO cells) VH: EMQVLESGGGLVQPGGSLRLSCAASGFTFNNYAMSWVRQVPGKGLEWVSSISGSGGSTYYADSVKGQFTISRDNSKNTLYLQMNSLRAEDTAVYYCAKSSILSGGHARVYGIDVWGQGTTVTVSS VL: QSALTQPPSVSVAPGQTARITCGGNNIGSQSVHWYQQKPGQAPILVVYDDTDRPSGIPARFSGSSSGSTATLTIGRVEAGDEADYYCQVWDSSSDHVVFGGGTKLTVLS stands at 3.6
